biological target: Mu-type opioid receptor (Homo sapiens, UniProt P35372); experiment: Displacement of [3H]-naltrindole from human mu opioid receptor expressed in CHO cells after 2 hrs by scintillation counting
Sequence (P35372 whole entry): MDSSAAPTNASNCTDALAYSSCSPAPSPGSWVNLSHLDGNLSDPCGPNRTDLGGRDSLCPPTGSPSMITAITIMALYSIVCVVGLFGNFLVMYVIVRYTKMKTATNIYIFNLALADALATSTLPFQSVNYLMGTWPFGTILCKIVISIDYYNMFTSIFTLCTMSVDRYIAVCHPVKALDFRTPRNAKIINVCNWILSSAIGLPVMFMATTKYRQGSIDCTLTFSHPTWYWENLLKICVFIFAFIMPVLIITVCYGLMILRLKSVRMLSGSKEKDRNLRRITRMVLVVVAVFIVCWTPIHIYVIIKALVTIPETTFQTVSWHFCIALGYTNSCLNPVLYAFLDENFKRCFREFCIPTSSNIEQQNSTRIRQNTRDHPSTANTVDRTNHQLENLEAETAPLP
pIC50: −log10 of the molar value.
OBSERVED PROPERTY: pIC50

Please review the following examples before continuing.
| SMILES CODE | pIC50 |
| --- | --- |
| CCCCCCCCNCc1ccc(OCc2ccccc2C(=O)Nc2ccc3nc(C)cc(N)c3c2)cc1 | 5.36 |
| CCCCNCc1ccc(OCc2ccccc2C(=O)Nc2ccc3nc(C)cc(N)c3c2)cc1 | 5.29 |
| CCCCCCNCc1ccc(OCc2ccccc2C(=O)Nc2ccc3nc(C)cc(N)c3c2)cc1 | 5.59 |

P = Cc1cc(N)c2cc(NC(=O)c3ccccc3COc3ccc(CNCCCCCCCCCCNCc4ccc(OCc5ccccc5C(=O)Nc5ccc6nc(C)cc(N)c6c5)cc4)cc3)ccc2n1
Q = Cc1cc(N)c2cc(NC(=O)c3ccccc3COc3ccc(CNCCCCN)cc3)ccc2n1
# argmax over pIC50 for candidates P and Q Identify your selection by its label.
P

A = Cc1cc(N)c2cc(NC(=O)c3ccccc3COc3ccc(CNCCCCCCNCc4ccc(OCc5ccccc5C(=O)Nc5ccc6nc(C)cc(N)c6c5)cc4)cc3)ccc2n1
B = CCCCCCCCCCNCc1ccc(OCc2ccccc2C(=O)Nc2ccc3nc(C)cc(N)c3c2)cc1
C = CCCCCNCc1ccc(OCc2ccccc2C(=O)Nc2ccc3nc(C)cc(N)c3c2)cc1
Returns the items ordered by pIC50, from maximum to minimum. Your task in answering is to list the labels in the requested order.
A, B, C
(A: 5.86, B: 5.56, C: 5.35)
